target-under-test: His-tagged KRAS G12D protein (Homo sapiens, UniProt P01116, G12D)
Sequence (P01116 1-188 isoform P01116-2 G12D): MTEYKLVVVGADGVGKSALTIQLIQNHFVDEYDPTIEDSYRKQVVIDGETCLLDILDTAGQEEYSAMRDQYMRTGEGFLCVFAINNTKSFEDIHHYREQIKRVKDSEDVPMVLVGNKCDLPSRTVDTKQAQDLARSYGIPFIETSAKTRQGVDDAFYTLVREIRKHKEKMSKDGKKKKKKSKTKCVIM
experimental-details: KRAS G12D TR-FRET Assay;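 further: europium anti-His antibody paired with streptavidin-d2 as FRET partners, initial 30 min incubation, then peptide 1 h and detection reagents 1 h, all at room temperature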
experimental-conditions: biotinylated KRPep-2d substrate, 10 μM GDP
pIC50: −log10 of the molar value.
This listing pairs compounds with measured pIC50.

[
  {
    "structure-string": "CN1CC(F)(F)C[C@H]1COc1nc(N2CCNCC2)c2cc(Cl)c(-c3cccc4sc(N)nc34)c(F)c2n1",
    "pIC50": 5.74
  },
  {
    "structure-string": "CN1C[C@@H](F)C[C@H]1COc1nc(N2CCNCC2)c2cc(Cl)c(-c3cccc4sc(N)nc34)c(F)c2n1",
    "pIC50": 6.17
  },
  {
    "structure-string": "C[C@@]1(COc2nc(N3CCNCC3)c3cc(Cl)c(-c4cccc5sc(N)nc45)c(F)c3n2)CCCN1",
    "pIC50": 7.22
  },
  {
    "structure-string": "CN1CCC[C@H]1COc1nc(N2CCNCC2)c2cc(Cl)c(-c3ccc(C(F)(F)F)c4sc(N)nc34)c(F)c2n1",
    "pIC50": 5.85
  },
  {
    "structure-string": "CN1CCC[C@H]1CCOc1nc(N2CCNCC2)c2cc(Cl)c(-c3cccc4sc(N)nc34)c(F)c2n1",
    "pIC50": 6.32
  },
  {
    "structure-string": "Nc1nc2c(-c3c(Cl)cc4c(N5CCNCC5)nc(OC[C@@H]5C[C@@H](F)CN5)nc4c3F)cccc2s1",
    "pIC50": 7.09
  },
  {
    "structure-string": "CN(C)C1CN(c2nc(N3CCNCC3)c3cc(Cl)c(-c4cccc5sc(N)nc45)c(F)c3n2)C1",
    "pIC50": 5.79
  }
]

----------
target-under-test: GDP-bound KRAS protein (aa 1-169), containing both G12D and C118A amino acid substitutions (Homo sapiens, UniProt P01116, C118A/G12D)
Sequence (P01116 1-169 isoform P01116-2 G12D/C118A): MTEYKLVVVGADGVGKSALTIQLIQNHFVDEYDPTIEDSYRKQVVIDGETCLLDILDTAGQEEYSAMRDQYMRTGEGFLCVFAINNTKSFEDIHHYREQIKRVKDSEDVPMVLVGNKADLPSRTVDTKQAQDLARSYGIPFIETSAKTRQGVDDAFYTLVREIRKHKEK
experimental-details: KRAS G12D Coupled Nucleotide Exchange Assay;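 further: IC50 obtained by fitting the AlphaScreen signal with a four-parameter logistic curve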
Type: biochemical
experimental-conditions: 2 h compound pre-incubation; SOS-mediated nucleotide exchange, cRAF AlphaScreen readout
This listing pairs compounds with measured Avg 2 h Coupled Exchange IC50.

[
  {
    "compound": "Nc1nc2c(-c3c(Cl)cc4c(N5CCNCC5)nc(OC[C@@H]5CCCN5)nc4c3F)cccc2s1",
    "Avg 2 h Coupled Exchange IC50 [nM]": 63
  },
  {
    "compound": "N#Cc1c(OCC23CCCN2C[C@H](F)C3)nc2c(F)c(-c3ccc(F)c4sc(N)nc34)c(Cl)cc2c1N1[C@@H]2CC[C@H]1CNC2 (stereo partly shown)",
    "Avg 2 h Coupled Exchange IC50 [nM]": 88
  },
  {
    "compound": "Nc1nc2c(-c3ccc4c(N5C[C@H]6CC[C@@H](C5)N6)nc(OC[C@@]56CCCN5C[C@H](F)C6)nc4c3F)ccc(F)c2s1",
    "Avg 2 h Coupled Exchange IC50 [nM]": 3
  },
  {
    "compound": "CNC1(C)CN(c2nc(N3CCNCC3)c3cc(Cl)c(-c4cccc5sc(N)nc45)c(F)c3n2)C1",
    "Avg 2 h Coupled Exchange IC50 [nM]": 201
  },
  {
    "compound": "CN1CCC[C@H]1COc1nc(N2CCNC(=O)C2)c2cc(Cl)c(-c3cccc4sc(N)nc34)c(F)c2n1",
    "Avg 2 h Coupled Exchange IC50 [nM]": 166
  },
  {
    "compound": "Nc1nc2c(-c3c(Cl)cc4c(N5CCNCC5)nc(OCC56CCC(CC5)N6)nc4c3F)cccc2s1",
    "Avg 2 h Coupled Exchange IC50 [nM]": 797
  },
  {
    "compound": "C[C@]1(COc2nc(N3CCNCC3)c3cc(Cl)c(-c4cccc5sc(N)nc45)c(F)c3n2)CCCN1",
    "Avg 2 h Coupled Exchange IC50 [nM]": 122
  }
]
